Assay: photoluminescence quantum yield (fraction); solvent given as SMILES
Details: in CC#N
Assay readout: photoluminescence quantum yield
Form field (numeric): enter value without unit.

# Compound, Assay readout, Reported result
data = [
    ("CN(C)c1ccc2nc3c(cc2c1)c(-c1ccccc1)nn3-c1ccccc1", "photoluminescence quantum yield", 0.57),
    ("Cc1ccc2c(c1)C(=O)c1ccncc1-2", "photoluminescence quantum yield", 0.019),
    ("CC(=O)c1ccc(-c2nc3ccc(N(C)C)c(Cl)c3s2)cc1", "photoluminescence quantum yield", 0.7),
    ("[NH3+]C1(c2ccc3cc(O)ccc3c2)C2CC3CC(C2)CC1C3 (stereo unspecified)", "photoluminescence quantum yield", 0.3),
    ("CCN(CC)c1ccc2cc(/C=C/c3cccc[n+]3CCCS(=O)(=O)[O-])c(=O)oc2c1", "photoluminescence quantum yield", 0.11),
]

Moving on to the next compound.
Please give the measured photoluminescence quantum yield for this compound: "CC1=N/C(=C\c2cc(N(C)C)ccc2C#N)C(=O)N1C"
0.07

---

Assay: photoluminescence quantum yield (fraction); solvent given as SMILES
Conditions: in CCOC(C)=O
Assay readout: photoluminescence quantum yield
Form field (numeric): enter value without unit.

As a guide, the following entries are already answered.
# Smiles notation, photoluminescence quantum yield
measured = [
    ("CCn1c(-c2ccc(-c3ccc4c(c3)C(C)(C)c3ccccc3-4)cc2)c(-c2ccc3ccccc3c2)c(-c2ccc3ccccc3c2)c1-c1ccc(-c2ccc3c(c2)C(C)(C)c2ccccc2-3)cc1", 0.99),
    ("CCC1=C(C)C2=C(C)c3c(I)c(I)cn3[B-](F)(F)[N+]2=C1C", 0.031),
    ("Cn1ncc2c3c(C#N)c4c5ccccc5n(C)c4nc3ccc21", 0.51),
]

Please give the measured photoluminescence quantum yield for this compound: "CN1C(=O)/C(=C/c2ccncc2)N=C1/C=C/c1ccccc1"
0.017

Please give the measured photoluminescence quantum yield for this compound: "COC(=O)c1ccc(C#Cc2ccc(N(C)C)cc2)cc1"
0.14

---

Experiment: photoluminescence quantum yield (fraction); solvent given as SMILES
Details: in Cc1ccccc1
Assay readout: photoluminescence quantum yield
Form field (numeric): enter value without unit.

As a guide, the following entries are already answered.
# Compound, photoluminescence quantum yield
measured = [
    ("CC(C)(C)c1ccc(-c2cc3c(-c4ccc(C(C)(C)C)cc4)c4cccc5c(-c6ccc(C(C)(C)C)cc6)cc6c(-c7ccc(C(C)(C)C)cc7)c7cccc2c7c3c6c54)cc1", 0.41),
    ("CC(C)c1cc(C(C)C)c(B2c3ccccc3Oc3cc(N4c5ccccc5C(C)(C)c5ccccc54)ccc32)c(C(C)C)c1", 1),
    ("CON(OC)c1cc2c3cc(-c4c(C)cc(C)cc4C)cc4c5cc(-c6c(C)cc(C)cc6C)cc6c7cc(B(c8c(C)cc(C)cc8C)c8c(C)cc(C)cc8C)cc8c9cc(-c%10c(C)cc(C)cc%10C)cc%10c%11cc(-c%12c(C)cc(C)cc%12C)cc%12c(c1)c2c1c(c43)c(c65)c(c78)c(c9%10)c1c%11%12", 0.42),
    ("O=P1(c2ccccc2)C(c2cc(C(F)(F)F)cc(C(F)(F)F)c2)=Cc2c3ccc4cccc5ccc(c6cc(-c7ccccc7)n1c26)c3c45 (stereo not given)", 0.66),
]

Moving on to the next compound.
Please give the measured photoluminescence quantum yield for this compound: CCCCC(CC)CN1C(=O)c2cc(Oc3ccc(OC)cc3)c3c4c(Oc5ccc(C(C)(C)C)cc5)cc5c6c(cc(Oc7ccc(C(C)(C)C)cc7)c(c7c(Oc8ccc(OC)cc8)cc(c2c37)C1=O)c64)C(=O)N(c1c(C(C)C)cccc1C(C)C)C5=O (stereo not given)
0.58

---

Listed here: items and their measured photoluminescence quantum yield.
Assay: photoluminescence quantum yield (fraction); solvent given as SMILES
Settings: in c1ccccc1
Form field (numeric): enter value without unit.

# Smiles notation, photoluminescence quantum yield
data = [
    ("CCC1=C(C)C(=O)n2c1cc1c(C)c(CC(=O)O)c(C)n1c2=O", 0.88),
    ("CCN(CC)/C(C)=N\\c1ccc2c3c(cccc13)C(=O)c1ccccc1-2", 0.55),
    ("O=c1oc2ccc3ccc(O)cc3c2nc1-c1ccccc1", 0.606),
    ("CN(C)c1ccc2c(c1)C(=O)c1ccccc1-2", 0.0012),
    ("C(=C\\c1cnc2ccccc2n1)/c1cnccn1", 0.0015),
    ("F[B-]1(F)n2c(c3cc4ccccc4cc3c2-c2ccccc2)C=C2c3cc4ccccc4cc3C(c3ccccc3)=[N+]21", 0.21),
]

Please give the measured photoluminescence quantum yield for this molecule: "CN(C)c1cccc2c1C(=O)c1ccccc1-2"
0.0024

Please give the measured photoluminescence quantum yield for this molecule: "CNc1ccc2c(c1)C(=O)c1ccccc1-2"
0.001

Please give the measured photoluminescence quantum yield for this molecule: "CC(C)[Si]1(C(C)C)c2cc(C#N)ccc2-c2ccc(N(c3ccccc3)c3ccccc3)cc21"
0.75

Please give the measured photoluminescence quantum yield for this molecule: "CCC1=C(C)C(=O)n2c1cc1c(CCC(=O)O)c(C)c(C)n1c2=O"
0.84

Please give the measured photoluminescence quantum yield for this molecule: "Cc1nc2c(ccc3ccccc32)oc1=O"
0.198

Please give the measured photoluminescence quantum yield for this molecule: "CN(C)c1ccc2nc(-c3ccc(C(=O)OC[C@H](NC(=O)OC(C)(C)C)C(=O)OCc4ccccc4)cc3)sc2c1"
0.92

Please give the measured photoluminescence quantum yield for this molecule: "C#CCNC1=C2C=CC=[N+]2[B-](F)(F)n2cccc21"
0.924

Please give the measured photoluminescence quantum yield for this molecule: "Nc1ccccc1C(=O)O"
0.39

Please give the measured photoluminescence quantum yield for this molecule: "CCC1=C(C)C(=O)n2c1cc1c(C)c(CC)c(C)n1c2=O"
0.98

Please give the measured photoluminescence quantum yield for this molecule: "Nc1cccc2c1-c1ccccc1C2=O"
0.074

Please give the measured photoluminescence quantum yield for this molecule: "CCOC(=O)c1sc2nc(-c3ccccc3)c(C)c(C#N)c2c1N"
0.047

Please give the measured photoluminescence quantum yield for this molecule: "Cc1ccc([C@@H]2C[C@](O)(c3ccccn3)C[C@](O)(c3ccccn3)[C@H]2C(=O)c2ccc(N(c3ccccc3)c3ccccc3)cc2)cc1"
0.97

Please give the measured photoluminescence quantum yield for this molecule: "CCC1(CC)c2cc(N(C)C)ccc2-c2ccc(C(F)(F)F)cc21"
0.59

Please give the measured photoluminescence quantum yield for this molecule: "CNc1ccc2c(c1)-c1ccccc1C2=O"
0.19

Please give the measured photoluminescence quantum yield for this molecule: "Nc1ccc2c(c1)-c1ccccc1C2=O"
0.13

Please give the measured photoluminescence quantum yield for this molecule: "CCOC(=O)c1ccc(NC(=O)COc2cc3c4c([nH]c3c(C)c2C)C(=O)CCC4)cc1"
0.075

---

Test: photoluminescence quantum yield (fraction); solvent given as SMILES
Conditions: in CCCCCC
Listed here: items and their measured photoluminescence quantum yield.
Form field (numeric): enter value without unit.

# Compound, Reported result
records = [
    ("CC(C)[Si](C#Cc1ccc(C#C[Si](C(C)C)(C(C)C)C(C)C)c2nc3c(nc12)C1c2ccccc2C3c2ccccc21)(C(C)C)C(C)C", 0.1),
    ("CCc1c(C)c2n(c1C)[B-](F)(F)[N+]1=C(c3ccc[nH]3)c3ccccc3C1=C2", 0.82),
    ("[C-]#[N+]c1ccc(-c2ccc(N)cc2)cc1", 0.76),
    ("CC(C)[Si](C#Cc1c2ccccc2c(C#C[Si](C(C)C)(C(C)C)C(C)C)c2nc3cc4c(cc3nc12)C1c2ccccc2C4c2ccccc21)(C(C)C)C(C)C", 0.57),
    ("CC(C)(C)c1ccc(-c2c3ccccc3c3n2[B-](F)(F)[N+]2=Cc4c5ccccc5c(-c5ccc(C(C)(C)C)cc5)n4[B-](F)(F)[N+]2=C3)cc1", 0.34),
]

Please give the measured photoluminescence quantum yield for this compound: "F[B-]1(F)n2cccc2C=C2c3ccccc3C(c3ccc[nH]3)=[N+]21"
0.83

Please give the measured photoluminescence quantum yield for this compound: O=C1c2ccccc2C(=O)C1C1C(=O)c2c3ccccc3cc3cc4ccccc4c1c23 (stereo not drawn)
0.339

Please give the measured photoluminescence quantum yield for this compound: "CC1=CC(C)=[N+]2C1=Cc1cccn1[B-]2(F)F"
0.93

---

Assay: photoluminescence quantum yield (fraction); solvent given as SMILES
Conditions: in CO
Assay readout: photoluminescence quantum yield
Form field (numeric): enter value without unit.

As a guide, the following entries are already answered.
# Smiles notation, photoluminescence quantum yield
records = [
    ("COc1ccc(/C=C2\\OC(=O)c3ccccc32)cc1", 0.14),
    ("O=Cc1c(O)c(-c2nc3ccccc3s2)cc2ccccc12", 0.061),
    ("F[B-]1(F)n2cccc2C=C2c3ccccc3C(c3ccc[nH]3)=[N+]21", 0.76),
    ("CC1(C)C(/C=C/C2=C(c3ccc(C(=O)O)cc3)C(=C/C=C3/N(CCCS(=O)(=O)[O-])c4ccc5ccccc5c4C3(C)C)/CCC2)=[N+](CCCS(=O)(=O)[O-])c2ccc3ccccc3c21", 0.088),
    ("CC1=CC(C)=[N+]2C1=Cc1cccn1[B-]2(F)F", 0.99),
    ("Brc1cnc(-c2ccncc2)s1", 0.02),
    ("COc1ccc(-c2nc(-c3ccc(C(=O)O)cc3)[nH]c2-c2ccc(OC)cc2)cc1", 0.42),
    ("CC1=CC(C)=[N+]2C1=Cc1c(C)cc(C)n1[B-]2(F)F", 0.99),
    ("c1ccc2c(c1)CCc1c-2cnc2c1-c1ccccc1CC2", 0.141),
]

Moving on to the next compound.
Please give the measured photoluminescence quantum yield for this compound: "CCN(C)c1ccc(C2=C3C(C)=CC(/C=C/c4ccc(OCCCN=[N+]=[N-])cc4)=[N+]3[B-](F)(F)n3c(C)cc(C)c32)cc1"
0.69
